target: Microphthalmia-associated transcription factor (Homo sapiens); assay: MITF inhibitors by FRET titration, dose response, biochemical, high throughput (AID 1259375); conditions: FRET biochemical assay, MITF inhibition;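 also: FRET between CFP-tagged and YFP-tagged MITF protein partners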
Activity calls are given as the source filed them. No rule for the calls is given here.
Observable: IC50

[[record]]
compound = "CC(C)NC(=O)/C(C#N)=C/c1ccc(-c2ccc([N+](=O)[O-])cc2Br)o1"
observable = "IC50"
experimental_result = "> 7.06 µM (inactive)"

[[record]]
compound = "O=C(NNC(=S)Nc1ccccc1)C(=O)NNC(=S)Nc1ccccc1"
observable = "IC50"
experimental_result = "> 6.67 µM (inactive)"

[[record]]
compound = "O=C(O)c1ccc(CS(=O)(=O)c2ccccc2)o1"
observable = "IC50"
experimental_result = "> 6.48 µM (inactive)"

[[record]]
compound = "CC1=C(C#N)C(c2cc3c(cc2[N+](=O)[O-])OCO3)C2=C(CCCC2=O)N1 (stereo not given)"
observable = "IC50"
experimental_result = "> 6.48 µM (inactive)"

[[record]]
compound = "CN1CCN(C(=O)c2ccc(-c3nc(Nc4ccccc4)c4ncn(C5CCCCC5)c4n3)cc2)CC1"
observable = "IC50"
experimental_result = "> 7.63 µM (inactive)"

[[record]]
compound = "COc1cc(N2CCOCC2)ccc1Nc1cc(NC(C)(C)c2ccccc2)c(C(F)(F)F)cn1"
observable = "IC50"
experimental_result = "> 6.48 µM (inactive)"

[[record]]
compound = "O=P(O)(O)C(O)(CCNC(=S)Nc1ccccc1)P(=O)(O)O"
observable = "IC50"
experimental_result = "> 6.83 µM (inactive)"

[[record]]
compound = "CCC[C@@H]1NC(=O)[C@H]2CN(C(=O)NCc3ccccc3)CCN2C1=O"
observable = "IC50"
experimental_result = "> 6.48 µM (inactive)"

[[record]]
compound = "COC(C)(C)CNC(=O)C1CCN(C2CCN(Cc3cccc(C)n3)CC2)CC1"
observable = "IC50"
experimental_result = "> 6.48 µM (inactive)"

[[record]]
compound = "CC(C)(C)c1ccc(OCCn2cncn2)c(Cl)c1"
observable = "IC50"
experimental_result = "> 6.48 µM (inactive)"


###

molecular target: Microphthalmia-associated transcription factor (Homo sapiens); assay: MITF inhibitors by FRET titration, dose response, biochemical, high throughput (AID 1259375); settings: FRET biochemical assay, MITF inhibition;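 also: FRET between CFP-tagged and YFP-tagged MITF protein partners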
Active and inactive are the calls of the source. The rule behind the calls is not given here.
Labels: Yes = active, No = inactive

[[record]]
compound = "C[C@@H](O)[C@@H]1NC(=O)[C@H]2CN(C(=O)NC3CCCCC3)CCN2C1=O"
cat = "No"

[[record]]
compound = "O=c1cc(/C=C/c2ccc(O)cc2)nc2nn[nH]n12"
cat = "No"

[[record]]
compound = "COC(=O)c1ccc(=O)c2nc3/c(=C/O)c(O)cc(=O)c3[nH]c12"
cat = "Yes"

[[record]]
compound = "NC(=O)c1cccc(-c2cccs2)c1"
cat = "No"

[[record]]
compound = "C/C(N)=C(/C#N)C(=O)COC(=O)c1c2c(nc3ccccc13)/C(=C/c1ccco1)CC2"
cat = "No"

[[record]]
compound = "COc1ccc(C)cc1NS(=O)(=O)c1ccc2c(c1)CCC(=O)N2"
cat = "No"

[[record]]
compound = "COC(=O)CSc1nnc(-c2cnccn2)n1C"
cat = "No"

[[record]]
compound = "O=C(Nc1ccc(N2CCOCC2)cc1)c1ccnc(Nc2ncccn2)c1"
cat = "No"

[[record]]
compound = "O=C(CCCCC1SCC2NC(=O)NC21)NC1(c2ccc3c(c2)OCO3)CCCC1 (centres undefined)"
cat = "No"

[[record]]
compound = "Cc1cc(C)n(C(=O)/C=C/c2ccco2)n1"
cat = "No"

[[record]]
compound = "COc1cc(OC)c(CN2CCCC(O)C2)cc1Br (centres undefined)"
cat = "No"

[[record]]
compound = "O=C(c1ccncc1)N1CCN(Cc2ccccc2[N+](=O)[O-])CC1"
cat = "No"

[[record]]
compound = "CCCOc1ccc(N)cc1N"
cat = "No"

[[record]]
compound = "Cc1ccc(O)c(NC(=S)NC(=O)/C=C/c2ccco2)c1"
cat = "No"

[[record]]
compound = "CC[C@@H]1NC(=O)[C@H]2CN(C(=O)NCc3ccccc3)CCN2C1=O"
cat = "No"

[[record]]
compound = "O=C(NCc1ccccc1)N1CCN2C(=O)[C@@H]3CCCN3C(=O)[C@H]2C1"
cat = "No"

[[record]]
compound = "COCCCNC(=O)/C(C#N)=C/c1ccc(-c2ccc(C(=O)O)c(Cl)c2)o1"
cat = "No"

[[record]]
compound = "O=C(NCc1cccnc1)c1ccnc(-c2cccs2)c1"
cat = "No"

[[record]]
compound = "CCc1ccc(NC(=O)CS(=O)CC(=O)NCCCc2ccccc2)cc1 (centres undefined)"
cat = "No"

[[record]]
compound = "CCOC(=O)C1C2NC(=S)N(c3ccccc3)C1(C)Oc1cc(OC)ccc12 (centres undefined)"
cat = "No"

[[record]]
compound = "O=C(O)CCN(CCC(=O)O)c1ccc(O)cc1"
cat = "Yes"

[[record]]
compound = "NC(=O)Cn1cnc2sc3c(c2c1=O)CCC3"
cat = "No"

[[record]]
compound = "O=C(O)c1ccccc1-c1ccc(/C=C/[N+](=O)[O-])o1"
cat = "No"

[[record]]
compound = "c1ccc(COc2ccc(OCCCCn3ccnc3)cc2)cc1"
cat = "No"

